Can you tell me IC50 for the items I'm about to list?
# System: IL-1b
# EXPERIMENT SUMMARY: Mouse BMDM IL-1b Assay
# Assay type: cell-based
# MEASUREMENT CONDITIONS: Macrophage; mouse bone marrow derived macrophages (C57BL6); 200 ng/mL LPS 3 h, compound 30 min, 5 mM ATP 45 min; IL-1b ELISA of supernatant

{"columns": ["MOLECULE", "IC50"],
 "data": [
  ["CC1(C)CCc2oc(S(=O)(=O)NC(=O)Nc3c4c(cc5c3CCC5)CCC4)cc2C1=NO [Compound 50]", "< 100 nM"]
]}

# return IC50 for each item in the list
1. CC(C)C1Cc2oc(S(=O)(=O)NC(=O)Nc3c4c(cc5c3CCC5)CCC4)cc2C(O)C1 (centres unmarked) [Compound 28]
2. CC1(O)CCCc2oc(S(=O)(=O)NC(=O)Nc3c4c(c(Br)c5c3CCC5)CCC4)cc21 (centres unmarked) [Compound 40]
3. CCC1(O)CCCc2oc(S(=O)(=O)NC(=O)Nc3c4c(cc5c3CCC5)CCC4)cc21 (centres unmarked) [Compound 45]

1. 100 to 1000 nM
2. < 100 nM
3. < 100 nM

Hi! Can you tell me IC50 for each of these molecules?
1. CC1(C)Cc2oc(S(=O)(=O)NC(=O)Nc3c4c(cc5c3CCC5)CCC4)cc2C(C)(O)C1 (centres unmarked) [Compound 20]
2. CC1(C)CC(=NO)c2cc(S(=O)(=O)NC(=O)Nc3c4c(cc5c3CCC5)CCC4)oc2C1 [Compound 49]

1. < 100 nM
2. 100 to 1000 nM

Parameters: items (list). Returns: IC50 for each item.
1. O=C(Nc1c2c(cc3c1CCC3)CCC2)NS(=O)(=O)c1cc2c(o1)CCCC2=O [Compound 6]
2. N#Cc1c2c(c(NC(=O)NS(=O)(=O)c3cc4c(o3)CCCC4O)c3c1CCC3)CCC2 (centres unmarked) [Compound 54]

1: 100 to 1000 nM; 2: 100 to 1000 nM

Give IC50 for all molecules that follow.
1. Cc1c2c(c(NC(=O)NS(=O)(=O)c3cc4c(o3)CCCC4O)c3c1CCC3)CCC2 (centres unmarked) [Compound 52]
2. O=C(Nc1c2c(cc3c1CCC3)CCC2)NS(=O)(=O)c1cc2c(o1)CCC/C2=N\O [Compound 35]
3. O=C(O)CC1(O)CCCc2oc(S(=O)(=O)NC(=O)Nc3c4c(cc5c3CCC5)CCC4)cc21 (centres unmarked) [Compound 104]
4. O=C(Nc1c2c(cc3c1CCC3)CCC2)NS(=O)(=O)c1cc2c(o1)CCCCC2O (centres unmarked) [Compound 25]
5. O=C(Nc1c2c(cc3c1CCC3)CCC2)NS(=O)(=O)c1cc2c(o1)CCCc1c[nH]nc1-2 [Compound 33]
6. CC(C)c1cc(Br)cc(C(C)C)c1NC(=O)NS(=O)(=O)c1cc2c(o1)CCCC2O (centres unmarked) [Compound 69]
7. O=C(Nc1c2c(c(F)c3c1CCC3)CCC2)NS(=O)(=O)c1cc2c(o1)CCC/C2=N\O [Compound 90]

["< 100 nM", "< 100 nM", "1000 to 10000 nM", "< 100 nM", "100 to 1000 nM", "100 to 1000 nM", "< 100 nM"]

Could you tell me IC50 for each of these molecules? They are listed below.
1. O=C(Nc1c2c(c(C(F)(F)F)c3c1CCC3)CCC2)NS(=O)(=O)c1cc2c(o1)CCCC2O (centres unmarked) [Compound 55]
2. CC(C)c1cc(F)cc(C(C)C)c1NC(=O)NS(=O)(=O)c1cc2c(o1)CCCC2(C)O (centres unmarked) [Compound 64]
3. CC(C)c1cccc(C(C)C)c1NC(=O)NS(=O)(=O)c1cc2c(o1)CCCC2O (centres unmarked) [Compound 59]
4. CC(C)c1cc(F)cc(C(C)C)c1NC(=O)NS(=O)(=O)c1cc2c(o1)CCCCC2(C)O (centres unmarked) [Compound 121]
5. CC(C)c1ccc(Cl)c(C(C)C)c1NC(=O)NS(=O)(=O)c1cc2c(o1)CCCC2O (centres unmarked) [Compound 65]

1: < 100 nM; 2: < 100 nM; 3: 100 to 1000 nM; 4: 100 to 1000 nM; 5: < 100 nM

// each molecule listed below needs its IC50
1. CN1CCCc2oc(S(=O)(=O)NC(=O)Nc3c4c(cc5c3CCC5)CCC4)cc2C1 [Compound 87]
2. CC1(O)CCCCc2oc(S(=O)(=O)NC(=O)Nc3c4c(cc5c3CCC5)CCC4)cc21 (centres unmarked) [Compound 24]
3. CC(C)c1ccc(F)c(C(C)C)c1NC(=O)NS(=O)(=O)c1cc2c(o1)CCC/C2=N/O [Compound 97]

1: < 100 nM; 2: < 100 nM; 3: 100 to 1000 nM

Give IC50 for each listed item.
1. CC1(O)CCCc2oc(S(=O)(=O)NC(=O)Nc3c4c(cc5c3CCC5)CCC4)cc21 (centres unmarked) [Compound 5]
2. CC(C)c1ccc(Cl)c(C(C)C)c1NC(=O)NS(=O)(=O)c1cc2c(o1)CCC/C2=N/O [Compound 79]
3. CC(C)c1cccc(C(C)C)c1NC(=O)NS(=O)(=O)c1cc2c(o1)CCCCC2(C)O (centres unmarked) [Compound 109]
4. O=C(Nc1c2c(c(Br)c3c1CCC3)CCC2)NS(=O)(=O)c1cc2c(o1)CCC/C2=N\O [Compound 95]
5. O=C(Nc1c2c(c(Cl)c3c1CCC3)CCC2)NS(=O)(=O)c1cc2c(o1)CCCCC2O (centres unmarked) [Compound 117]

1: < 100 nM; 2: 100 to 1000 nM; 3: 100 to 1000 nM; 4: 100 to 1000 nM; 5: < 100 nM

Need IC50 for each of these molecules.
1. Cc1c(S(=O)(=O)NC(=O)Nc2c3c(cc4c2CCC4)CCC3)oc2c1C(C)(O)CCC2 (centres unmarked) [Compound 93]
2. CC(C)c1cc(Br)cc(C(C)C)c1NC(=O)NS(=O)(=O)c1cc2c(o1)CCCC2(C)O (centres unmarked) [Compound 70]
3. CC(C)c1ccc(F)c(C(C)C)c1NC(=O)NS(=O)(=O)c1cc2c(o1)CCCC2O (centres unmarked) [Compound 67]
4. O=C(Nc1c2c(cc3c1CCC3)CCC2)NS(=O)(=O)c1cc2c(o1)CCC/C2=N/O [Compound 36]

1: < 100 nM; 2: 100 to 1000 nM; 3: 100 to 1000 nM; 4: < 100 nM
